- measurement_target: T1, lecithin:cholesterol acyltransferase (LCAT), purified from human plasma (human, UniProt P04180 25-440)
- T1 sequence (looked up): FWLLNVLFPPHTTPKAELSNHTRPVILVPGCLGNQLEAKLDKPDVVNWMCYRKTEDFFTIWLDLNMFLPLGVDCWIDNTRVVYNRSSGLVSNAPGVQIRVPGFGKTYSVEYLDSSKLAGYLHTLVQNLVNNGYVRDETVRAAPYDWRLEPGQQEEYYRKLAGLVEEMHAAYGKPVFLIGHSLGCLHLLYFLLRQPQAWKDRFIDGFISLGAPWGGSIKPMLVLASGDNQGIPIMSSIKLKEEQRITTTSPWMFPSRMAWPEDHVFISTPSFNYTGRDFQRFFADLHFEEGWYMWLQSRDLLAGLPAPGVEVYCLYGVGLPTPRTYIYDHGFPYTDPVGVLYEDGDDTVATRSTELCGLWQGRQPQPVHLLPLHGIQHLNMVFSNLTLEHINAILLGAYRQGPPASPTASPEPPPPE
- run_description: cell-based or functional assay
Non-standard residues stand in square brackets, D forms with d. Primed or numbered codes have the meaning given here. No end group written: not given here. Nal″ = naphthylalanine; Aib = CC(C)(N)C(=O)O
reported_property: ACTIVITY (%) LCAT

Guide cases for ACTIVITY (%) LCAT, answers given:
>>> reported_value("PVLDEWREKLNE[Aib]LEALKQKLK [peptide 62]")
16
>>> reported_value("PVLDEFREKLNE[Aib]LKALKQKLK [peptide 93]")
5
>>> reported_value("AVLELFENLLERLLDALQKKLK [peptide 153]")
49
>>> reported_value("PVLDEFREKLWE[Aib]LEALKQKLK [peptide 43]")
25
>>> reported_value("PVLELFENLLERLLDWLQKKLK [peptide 160]")
28

P. PVLDLFRNLLEKLLEALEQKLK [peptide 49]
Q. PVLDLFRELLNELLEA[Nal″]KQKLK [peptide 10]
For the two items P and Q , which reports the higher ACTIVITY (%) LCAT value? Your choice should be expressed through its label.
Q
